TARGET_OR_SYSTEM: T1, Tumor-associated calcium signal transducer 2 (UniProt P09758 27-323, limits assumed)
T1 sequence (looked up): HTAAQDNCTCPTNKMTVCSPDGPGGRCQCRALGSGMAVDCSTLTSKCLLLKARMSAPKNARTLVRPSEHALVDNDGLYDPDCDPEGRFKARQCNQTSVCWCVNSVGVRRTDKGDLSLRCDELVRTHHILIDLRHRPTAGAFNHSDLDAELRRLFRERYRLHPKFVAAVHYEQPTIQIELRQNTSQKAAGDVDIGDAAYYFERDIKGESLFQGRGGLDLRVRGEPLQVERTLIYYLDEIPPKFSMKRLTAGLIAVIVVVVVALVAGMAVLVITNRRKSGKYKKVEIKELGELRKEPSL
EXPERIMENTAL_PROTOCOL: cell-based or functional assay
OBSERVABLE: IC50 (nM), in vitro killing activity, NCI-N87 Cell

[
  {
    "BINDER": "FDA018-LE21 (antibody, human IgG1, kappa, V domains shown, linker-drug LE21 coupled to cysteine sulfhydryl groups after reduction of the interchain disulfide bonds; DAR 4.05 for the whole antibody; sites not stated) VH: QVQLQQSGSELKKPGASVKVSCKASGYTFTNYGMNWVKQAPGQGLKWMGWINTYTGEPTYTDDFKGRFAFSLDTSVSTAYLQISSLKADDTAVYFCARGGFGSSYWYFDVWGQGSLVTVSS VL: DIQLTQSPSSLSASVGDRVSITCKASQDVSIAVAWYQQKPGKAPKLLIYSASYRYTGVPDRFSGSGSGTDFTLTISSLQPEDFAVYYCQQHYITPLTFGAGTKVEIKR",
    "VAL": 1.23
  },
  {
    "BINDER": "FDA018-LE22 (antibody, human IgG1, kappa, V domains shown, linker-drug LE22 coupled to cysteine sulfhydryl groups after reduction of the interchain disulfide bonds; DAR 4.00 for the whole antibody; sites not stated) VH: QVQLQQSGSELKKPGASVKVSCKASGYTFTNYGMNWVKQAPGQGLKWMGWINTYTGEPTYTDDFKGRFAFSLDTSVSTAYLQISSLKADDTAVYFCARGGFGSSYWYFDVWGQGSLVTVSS VL: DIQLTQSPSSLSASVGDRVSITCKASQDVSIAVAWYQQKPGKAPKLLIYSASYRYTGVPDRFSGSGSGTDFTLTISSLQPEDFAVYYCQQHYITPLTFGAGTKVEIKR",
    "VAL": 3.25
  },
  {
    "BINDER": "FDA018-LE14 (antibody, human IgG1, kappa, V domains shown, linker-drug LE14 coupled to cysteine sulfhydryl groups after reduction of the interchain disulfide bonds; DAR 4.00 for the whole antibody; sites not stated) VH: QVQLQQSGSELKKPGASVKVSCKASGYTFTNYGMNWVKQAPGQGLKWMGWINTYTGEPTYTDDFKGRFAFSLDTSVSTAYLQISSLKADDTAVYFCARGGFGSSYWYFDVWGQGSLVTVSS VL: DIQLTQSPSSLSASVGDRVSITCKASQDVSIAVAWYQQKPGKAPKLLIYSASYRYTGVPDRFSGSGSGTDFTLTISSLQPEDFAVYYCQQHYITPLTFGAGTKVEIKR",
    "VAL": 1.08
  }
]
